Data credit: ChEMBL document CHEMBL4387708

A collection of compounds and their measured Ratio
- Test system: Trypanosoma brucei
- protocol.text: Inhibition of PTR1 in Trypanosoma brucei bloodstream forms assessed as potentiation of methotrexate-induced parasitic cell growth inhibition by measuring potentiation index at 10 uM measured after 72 hrs by resazurin-based fluorescence assay relative to control (methotrexate)
- Type: functional

# count of solved cases: 2
structure.string	attribute.measured	result
N#Cc1ccc(COc2ccc3nc(N)sc3c2)cc1	Ratio	2
N#Cc1ccc(CSc2ccc3nc(N)sc3c2)cc1	Ratio	1.3

Alright, here's another compound for you.
Identify Ratio associated with the compound Nc1nc2ccc(C(=O)NCc3ccccc3)cc2s1 1.6

----------
We begin with a simple list: items and their reported inhibition at 10 µM.
- Tested on: Trypanosoma brucei
- protocol.text: Growth inhibition of Trypanosoma brucei bloodstream forms at 10 uM measured after 72 hrs by resazurin-based fluorescence assay relative to control
- Type: organism-based
- settings: Trypanosoma brucei, read-out: GI

Worked set:
structure.string	study.target	attribute.measured	result
Nc1nc2ccc(SCc3ccc(C(=O)NCc4ccccc4)cc3)cc2s1	Trypanosoma brucei	inhibition at 10 µM	26 to 33%
N#Cc1ccc(CS(=O)(=O)c2ccc3nc(N)sc3c2)cc1	Trypanosoma brucei	inhibition at 10 µM	9 to 13%
COc1ccc(CN(Cc2ccc(Cl)c(Cl)c2)C(=O)c2ccc3nc(N)sc3c2)cc1OC	Trypanosoma brucei	inhibition at 10 µM	> 60%
Nc1nc2c(O)cc(C(=O)NCc3ccc(Cl)c(Cl)c3)cc2s1	Trypanosoma brucei	inhibition at 10 µM	> 60%

Now examine the next entry.
Entry COC(=O)c1ccc(CSc2ccc3nc(N)sc3c2)cc1 needs its inhibition at 10 µM filled in; supply it. 7 to 17%

----------
- protocol.text: Inhibition of N-terminal His-tagged Trypanosoma brucei pteridine reductase 1 using di-hydrobiopterine as substrate measured at 1 min interval for 50 mins in presence of NADPH
Entries and their IC50
Report as a plain number; the unit µM is understood.

structure.string	IC50 (µM)
Nc1nc2ccc(C(=O)NCc3ccccc3N)cc2s1	13.9
COC(=O)c1ccc(CNC(=O)c2ccc3nc(N)sc3c2)cc1	16.5
Nc1nc2ccc(C(=O)NCc3ccc(Cl)c(Cl)c3)cc2s1	5.4
Nc1nc2c(C(=O)NCc3ccccc3)cc(O)c(O)c2s1	30.9

Lab note: next molecule to report on.
Could you please provide reported IC50 for N#Cc1ccc(CNC(=O)c2ccc3nc(N)sc3c2)cc1 ? Thanks! 42.9

----------
IC50, Cytochrome P450 2C19 (Homo sapiens, UniProt P33261): measured values

Below: 5 molecules and their reported IC50.
structure.string	attribute.measured	result
Nc1nc2ccc(OCc3ccc(Cl)c(Cl)c3)cc2s1	IC50	< 10 µM
COC(=O)C1CCN(C(=O)c2ccc3nc(N)sc3c2)CC1	IC50	> 25 µM
N#Cc1ccc(CNC(=O)c2ccc3nc(N)sc3c2)cc1	IC50	> 25 µM
COc1cc(CNC(=O)c2ccc3nc(N)sc3c2)cc(OC)c1OC	IC50	> 25 µM
Nc1nc2c(C(=O)NCc3ccc(Cl)c(Cl)c3)cc(O)c(O)c2s1	IC50	> 25 µM

Field: next molecule
Check Cytochrome P450 2C19 (Homo sapiens, UniProt P33261) data and give IC50 for Nc1nc2c(C(=O)NCc3ccccc3)cc(O)c(O)c2s1 . > 25 µM

----------
Target sequence: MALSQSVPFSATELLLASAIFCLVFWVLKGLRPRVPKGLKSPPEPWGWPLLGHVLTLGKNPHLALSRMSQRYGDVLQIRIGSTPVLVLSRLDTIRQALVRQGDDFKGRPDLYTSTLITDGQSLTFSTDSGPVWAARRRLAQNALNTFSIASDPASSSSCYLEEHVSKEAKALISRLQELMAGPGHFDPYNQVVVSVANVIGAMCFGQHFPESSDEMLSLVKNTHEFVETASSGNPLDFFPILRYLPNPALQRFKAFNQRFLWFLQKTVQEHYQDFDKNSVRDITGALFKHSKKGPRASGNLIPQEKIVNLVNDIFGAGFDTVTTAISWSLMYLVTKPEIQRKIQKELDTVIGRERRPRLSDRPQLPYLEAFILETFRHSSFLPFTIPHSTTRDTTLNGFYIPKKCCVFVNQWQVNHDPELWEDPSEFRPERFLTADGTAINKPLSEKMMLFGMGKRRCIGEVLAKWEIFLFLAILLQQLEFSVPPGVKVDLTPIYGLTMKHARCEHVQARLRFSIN
Collected IC50 values appear next to each entry.

Worked examples follow.
structure.string	result
Nc1nc2c(C(=O)NCc3ccc(Cl)c(Cl)c3)cc(O)c(O)c2s1	> 25 µM
COc1cc(CNC(=O)c2ccc3nc(N)sc3c2)cc(OC)c1OC	> 25 µM

For the molecule Nc1nc2c(C(=O)N(Cc3ccccc3)Cc3ccc(Cl)c(Cl)c3)cc(O)c(O)c2s1 , give its measured IC50 value. < 10 µM

Give me measured IC50, please, for this molecule: Nc1nc2ccc(OCc3ccccc3)cc2s1 < 10 µM
